testDescription: Ratio of drug level in brain to blood in rat at 1 mg/kg, iv
Type: ADME, organism-based
Design: dose 1 mg/kg, route intravenous
Measured Kp, listed per entry.

# smilesRepr, Kp
data = [
    ("Cc1nc2ncccc2cc1-c1ccc2cc(CCN3CCC[C@H]3C)ccc2n1", 0.4),
    ("Cc1cc2ncc(-c3ccc4cc(CCN5CCC[C@H]5C)ccc4n3)c(C)n2n1", 1.6),
    ("Cc1nn(C)cc1-c1ccc2cc(CCN3CCC[C@H]3C)ccc2n1", 1.8),
]

---

testDescription: Protein binding in rat plasma
Assay type: ADME, cell-free
setupConditions: read-out: PPB (converted)
Label T when fraction unbound is at or above 0.3; anything below gets F.

# smilesRepr, category
measured = [
    ("CCOc1ccc(-n2ncc(-c3ccc4cc(CCN5CCC[C@H]5C)ccc4n3)c2C)nn1", "F"),
    ("C[C@@H]1CCCN1CCc1cc2cc(-c3ccc(C#N)cc3)ccc2o1", "F"),
    ("Cc1nn(C)cc1-c1ccc2cc(CCN3CCC[C@H]3C)ccc2n1", "T"),
    ("Cc1nc2ncccc2cc1-c1ccc2cc(CCN3CCC[C@H]3C)ccc2n1", "T"),
]

---

Measured fraction unbound, listed per entry.
testDescription: Protein binding in monkey plasma
Assay type: ADME, cell-free, Macaca mulatta
setupConditions: rhesus monkey, read-out: PPB (converted)

# smilesRepr, fraction unbound
rows = [
    ("CCOc1ccc(-n2ncc(-c3ccc4cc(CCN5CCC[C@H]5C)ccc4n3)c2C)nn1", 0.21),
    ("Cc1nc2ncccc2cc1-c1ccc2cc(CCN3CCC[C@H]3C)ccc2n1", 0.5),
    ("Cc1nn(C)cc1-c1ccc2cc(CCN3CCC[C@H]3C)ccc2n1", 0.5),
    ("Cc1cc2ncc(-c3ccc4cc(CCN5CCC[C@H]5C)ccc4n3)c(C)n2n1", 0.45),
    ("C[C@@H]1CCCN1CCc1cc2cc(-c3ccc(C#N)cc3)ccc2o1", 0.06),
]

---

Measured Vbeta, listed per entry.
System: Rattus norvegicus
testDescription: Volume of distribution in rat at 1 mg/kg, iv
Format: ADME, organism-based
Parameters: dose 1 mg/kg, route intravenous
setupConditions: in vivo

# smilesRepr, Vbeta [L/kg]
rows = [
    ("Cc1nc(N2CCCC2)ncc1-c1ccc2cc(CCN3CCC[C@H]3C)ccc2n1", 8.5),
    ("Cc1cc2ncc(-c3ccc4cc(CCN5CCC[C@H]5C)ccc4n3)c(C)n2n1", 6.3),
    ("C[C@@H]1CCCN1CCc1cc2cc(-c3ccc(C#N)cc3)ccc2o1", 11.6),
    ("Cc1c(-c2ccc3cc(CCN4CCC[C@H]4C)ccc3n2)cnn1-c1ccccn1", 4.1),
    ("Cc1nn(C)cc1-c1ccc2cc(CCN3CCC[C@H]3C)ccc2n1", 9),
    ("Cc1nc2ncccc2cc1-c1ccc2cc(CCN3CCC[C@H]3C)ccc2n1", 9.2),
    ("CCOc1ccc(-n2ncc(-c3ccc4cc(CCN5CCC[C@H]5C)ccc4n3)c2C)nn1", 7.4),
]

---

testDescription: Ratio of drug level in brain to blood in mouse at 1 mg/kg, ip
Assay type: ADME, organism-based
Set-up: dose 1 mg/kg, route intraperitoneal

# smilesRepr, Kp
records = [
    ("Cc1c(-c2ccc3cc(CCN4CCC[C@H]4C)ccc3n2)cnn1-c1ccccn1", 23),
    ("Cc1cc2ncc(-c3ccc4cc(CCN5CCC[C@H]5C)ccc4n3)c(C)n2n1", 1.5),
    ("Cc1nc(N2CCCC2)ncc1-c1ccc2cc(CCN3CCC[C@H]3C)ccc2n1", 16),
    ("CCOc1ccc(-n2ncc(-c3ccc4cc(CCN5CCC[C@H]5C)ccc4n3)c2C)nn1", 42),
]

Source of measurements: ChEMBL document CHEMBL1137580
